assay target: recombinant human Cox-1 (r-hu Cox1) (Homo sapiens)
Construct: made in house; host or cells: baculovirus/Sf9 insect cells (microsomes)
Sequence (P23219 24-599): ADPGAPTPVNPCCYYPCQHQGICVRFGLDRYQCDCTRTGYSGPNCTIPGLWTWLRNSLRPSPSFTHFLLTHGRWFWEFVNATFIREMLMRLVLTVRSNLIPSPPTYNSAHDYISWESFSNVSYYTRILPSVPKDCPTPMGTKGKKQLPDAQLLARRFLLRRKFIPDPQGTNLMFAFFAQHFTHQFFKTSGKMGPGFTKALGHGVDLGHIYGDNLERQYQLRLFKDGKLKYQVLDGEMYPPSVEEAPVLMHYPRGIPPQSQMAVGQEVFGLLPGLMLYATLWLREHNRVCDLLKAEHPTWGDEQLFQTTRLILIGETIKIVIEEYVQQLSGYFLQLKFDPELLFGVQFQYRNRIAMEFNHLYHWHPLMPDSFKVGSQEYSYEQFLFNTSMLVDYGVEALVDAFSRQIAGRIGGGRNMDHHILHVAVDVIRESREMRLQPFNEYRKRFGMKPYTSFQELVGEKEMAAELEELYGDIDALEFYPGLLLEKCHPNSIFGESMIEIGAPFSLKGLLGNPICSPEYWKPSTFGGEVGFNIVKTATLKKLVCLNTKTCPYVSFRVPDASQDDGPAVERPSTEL
method notes: Recombinant human PGHS-1 enzyme assay (RHUCX1)
Assay type: biochemical
conditions used: 100 μM; read-out: RHUCX1 % Inh. at Dose
property label: inhibition at 100 µM (%)

Example cases with answers are listed next.
chem smiles	assay target	unit string	reported result
CS(=O)(=O)c1ccc(-c2cnn(-c3cccc(Cl)c3)c(=O)c2Cc2ccccc2)cc1	recombinant human Cox-1 (r-hu Cox1) (Homo sapiens)	%	0
CS(=O)(=O)c1ccc(-c2cnn(CC(F)(F)F)c(=O)c2-c2ccc(C(F)(F)F)cc2)cc1	recombinant human Cox-1 (r-hu Cox1) (Homo sapiens)	%	0

(1) Cc1ccc(-n2ncc(-c3ccc(S(C)(=O)=O)cc3)c(-c3ccc(F)cc3)c2=O)s1
(2) CS(=O)(=O)c1ccc(-c2cnn(-c3cccc(Cl)c3)c(=O)c2OCc2ccccc2)cc1
(3) CC(C)COc1c(-c2ccc(S(C)(=O)=O)cc2)cnn(-c2ccc(F)cc2)c1=O
Inquiry: Put the items in order so that reported inhibition at 100 µM rises from first to last. // ordering of labels required in reply
Reply text: 1, 2, 3

The values you see were collected from patent US20020028938A1.
